# TEST_SYSTEM: BTK (Homo sapiens, UniProt Q06187)
# Sequence (Q06187 whole entry): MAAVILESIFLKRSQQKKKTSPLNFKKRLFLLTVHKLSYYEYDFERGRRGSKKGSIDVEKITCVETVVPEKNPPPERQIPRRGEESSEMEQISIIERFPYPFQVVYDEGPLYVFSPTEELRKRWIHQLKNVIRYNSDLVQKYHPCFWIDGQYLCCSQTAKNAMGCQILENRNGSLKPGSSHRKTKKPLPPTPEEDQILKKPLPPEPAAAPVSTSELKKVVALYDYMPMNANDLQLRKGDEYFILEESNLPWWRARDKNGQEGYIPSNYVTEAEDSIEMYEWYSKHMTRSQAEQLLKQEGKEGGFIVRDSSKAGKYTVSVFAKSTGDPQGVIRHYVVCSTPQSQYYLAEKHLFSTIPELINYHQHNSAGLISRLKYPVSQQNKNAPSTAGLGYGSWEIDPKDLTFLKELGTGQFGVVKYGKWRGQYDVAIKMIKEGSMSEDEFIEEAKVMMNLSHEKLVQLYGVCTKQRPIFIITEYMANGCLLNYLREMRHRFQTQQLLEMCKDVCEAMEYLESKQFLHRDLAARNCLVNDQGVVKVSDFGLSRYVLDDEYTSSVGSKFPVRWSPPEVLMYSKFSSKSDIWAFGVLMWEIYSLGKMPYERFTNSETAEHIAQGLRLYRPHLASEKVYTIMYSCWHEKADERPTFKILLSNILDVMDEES
# ASSAY_EXPLANATION: Kinase profiling (radiometric filter-binding)
# Assay type: biochemical
# ASSAY_CONTEXT: 1 µM inhibitor, read-out: Residual activity, %
Square brackets hold non-standard residues; d marks the D form. Peptide text beside a SMILES is read from it. * marks the point of attachment. X3 = O=C(CCCCCNCc1nc2c(sc3cc(Br)cnc32)c(=O)[nH]1)*
Param label: returns 1 (yes) when remaining activity at 1 µM < 40%, returns 0 (no) otherwise, including exact equality.

Consider the worked cases shown below.
>>> discrete_label("N=C(N)NCCC[C@@H](NC(=O)CCCCCNC(=O)Cn1cnc2c(I)c(I)c(I)c(I)c21)C(=O)N[C@H](CCCNC(=N)N)C(=O)N[C@H](CCCNC(=N)N)C(=O)N[C@H](CCCNC(=N)N)C(=O)N[C@H](CCCNC(=N)N)C(=O)N[C@H](CCCNC(=N)N)C(=O)N[C@H](CCCCN)C(N)=O")
"1 (yes)"
>>> discrete_label("N=C(N)NCCC[C@@H](NC(=O)CNC(=O)[C@@H](CCCNC(=N)N)NC(=O)[C@@H](CCCNC(=N)N)NC(=O)CCCCCCCNCc1nc2c(sc3cc(Br)cnc32)c(=O)[nH]1)C(=O)N[C@H](CCCCN)C(N)=O")
"0 (no)"

## Task API: query returns whether the compound falls strictly under 40% in remaining activity at 1 µM. Query: `N=C(N)NCCC[C@@H](NC(=O)CNC(=O)[C@@H](CCCNC(=N)N)NC(=O)[C@@H](CCCNC(=N)N)NC(=O)Cn1cc(CNCc2nc3c(sc4ccc(Br)cc43)c(=O)[nH]2)nn1)C(=O)N[C@H](CCCCN)C(N)=O`
## Result 0 (no)

## Task Then N=C(N)NCCC[C@@H](NC(=O)CCCCCNCc1nc2c(sc3cc(Br)cnc32)c(=O)[nH]1)C(=O)N[C@H](CCCNC(=N)N)C(=O)N[C@H](CCCNC(=N)N)C(=O)N[C@H](CCCNC(=N)N)C(=O)N[C@H](CCCNC(=N)N)C(=O)N[C@H](CCCNC(=N)N)C(=O)N[C@H](CCCCN)C(N)=O [ARC-3126, BPTP-Ahx-(D-Arg)6-D-Lys-NH2] (X3-[dR][dR][dR][dR][dR][dR][dK]-NH2) ?
## Result 0 (no)

## Task Then `N=C(N)NCCC[C@@H](NC(=O)CNC(=O)[C@@H](CCCNC(=N)N)NC(=O)[C@@H](CCCNC(=N)N)NC(=O)CCCCCCCNCc1nc2c(sc3ccc(Br)cc32)c(=O)[nH]1)C(=O)N[C@H](CCCCN)C(N)=O` ?
## Result 0 (no)
